Each entry below carries its reported activity at 2 µg/mL.
test system: P. falciparum 3D7 parasites; experiment: P. falciparum growth inhibition assay, 2-cycle (120 h treatment), delayed-death screen and dose-response; assay type: cell-based, Plasmodium falciparum; details: Plasmodium falciparum, 3D7; P. falciparum, 120 h, screen at 2 μg/mL, replicate 1; read-out: Pf_120h_%Growth_Rep1
Provide only the numeric value, understood in %.

These recorded examples may help you get a feel for the data.
COMPOUND: CC[C@H]1OC(=O)C[C@@H](O)[C@H](C)[C@@H](O[C@@H]2O[C@H](C)[C@@H](O)[C@H](N(C)C)[C@H]2O)[C@@H](CCN2C[C@H](C)C[C@H](C)C2)C[C@@H](C)C(=O)/C=C/C(C)=C/[C@@H]1CO[C@@H]1O[C@H](C)[C@@H](O)[C@@H](OC)[C@H]1OC [Tilmicosin, reference compound]
activity at 2 µg/mL [%]: 22.4
--
COMPOUND: CC(=O)Nc1c2sscc-2n(C)c1=O [Thiolutin]
activity at 2 µg/mL [%]: 42.4
--
COMPOUND: O=C1N[C@@H](Cc2c[nH]c3ccccc23)C(=O)N2CCC[C@@H]12 [Brevianamide F]
activity at 2 µg/mL [%]: 148
--
COMPOUND: O=c1c(-c2ccc(O)cc2)coc2cc(O)ccc12 [Daidzein]
activity at 2 µg/mL [%]: 103
--
COMPOUND: C[C@@H]1C[C@H](C)C[C@H](C)[C@@H](O)CC(=O)O[C@H]([C@@H]2CCC[C@H]2C(=O)O)C/C=C/C=C(/C#N)[C@H](O)[C@@H](C)C1 [Borrelidin]
activity at 2 µg/mL [%]: 4.36

Form field activity at 2 µg/mL, entry C[C@@H]1C[C@@H]([C@H](O)CC2CC(=O)NC(=O)C2)C(=O)[C@@H](C)C1 [cycloheximide, reference compound] : 1.73

Form field activity at 2 µg/mL, entry CC[C@H]1CC2CN3CCc4c([nH]c5ccc(OC)cc45)[C@](C(=O)OC)(C2)[C@H]13 (stereo in doubt) [Voacangine] : 164

Form field activity at 2 µg/mL, entry CC1CCCCCC(=O)c2c(O)cc(O)cc2CC(=O)O1 (centres unmarked) [Curvularin] : 93.3

Form field activity at 2 µg/mL, entry COc1c(CC(C)O)c2c3c(CC(C)O)c(OC)c(=O)c4c(O)cc5c(c6c(cc(O)c(c1=O)c62)OCO5)c43 (centres unmarked) [Cercosporin] : 7.99

Form field activity at 2 µg/mL, entry C[C@H]1[C@H](C)CC[C@]2(C(=O)O)CC[C@]3(C)C(=CC[C@@H]4[C@@]5(C)CC[C@H](O)C(C)(C)[C@@H]5CC[C@]43C)[C@H]12 [Ursolic acid] : 155

Form field activity at 2 µg/mL, entry C=C(NC(=O)C(=C)NC(=O)c1csc(C2=N[C@@H]3c4csc(n4)[C@H]4NC(=O)c5csc(n5)[C@H]([C@](C)(O)[C@@H](C)O)NC(=O)[C@H]5CSC(=N5)/C(=C/C)NC(=O)[C@H]([C@@H](C)O)NC(=O)c5csc(n5)[C@]3(CC2)NC(=O)[C@H](C)NC(=O)C(=C)NC(=O)[C@H](C)NC(=O)[C@H]([C@@H](C)CC)N[C@@H]2C=Cc3c([C@H](C)O)cc(nc3[C@H]2O)C(=O)O[C@@H]4C)n1)C(N)=O [thiostrepton, reference compound] : 60.6

---

system: P. falciparum 3D7 parasites; assay: P. falciparum growth inhibition assay, 2-cycle (120 h treatment), delayed-death screen and dose-response; assay type: cell-based, Plasmodium falciparum; conditions: P. falciparum 3D7, 120 h, parasite screen at 2 μg/mL, % growth, replicate 2
Each entry below carries its reported Pf_120h_%Growth_Rep2.
Provide only the numeric value, understood in %.

These recorded examples may help you get a feel for the data.
COMPOUND: CC1=CCC2CC(CC3(CCC(C)C(C)O3)O2)OC(=O)C2C=C(C)C(=NO)C3OCC(=CC=CC(C)C1)C23O (stereo not shown) [BIA-M1531]
TEST TARGET: P. falciparum 3D7 parasites
Pf_120h_%Growth_Rep2, %: 51.60
--
COMPOUND: CCC1C=C(C)CC(C)CC(OC)C2OC(O)(C(=O)C(=O)N3CCCCC3C(=O)OC(C(C)=CC3CCC(Cl)C(OC)C3)C(C)C(O)CC1=O)C(C)CC2OC (stereo not shown) [BIA-P1385]
TEST TARGET: P. falciparum 3D7 parasites
Pf_120h_%Growth_Rep2, %: 13.77
--
COMPOUND: COc1cc(C)c(C(=O)O)c(OC)c1 [BIA-O1659]
TEST TARGET: P. falciparum 3D7 parasites
Pf_120h_%Growth_Rep2, %: 145.28

Consider the additional compound presented here.
Form field Pf_120h_%Growth_Rep2, entry COC1=CC(=O)c2c(n(C)c3occc3c2=O)C1=O [BIA-M1955] : 26.88

---

tested on: P. falciparum 3D7 parasites; test: P. falciparum growth inhibition assay, 1-cycle (72 h treatment), SYBR DNA staining (library screen at 2 μg/mL and dose-response); format: cell-based, Plasmodium falciparum; details: P. falciparum 3D7, 72 h, parasite screen at 2 μg/mL, % growth, replicate 1
Where a SMILES comes first, the peptide text is derived from it. Bridges are numbered along the chain shown (N, C = ends). The star is where a group is joined. X2 = CCCCCCCCCCCC(O)CC(=O)*
Each entry below carries its reported Pf_72h_%Growth_Rep1.
Provide only the numeric value, understood in %.

MOLECULE: COc1cc2nccc3c4ccccc4n(c1=O)c23 [BIA-M1940]
ENDPOINT: Pf_72h_%Growth_Rep1
UNIT ABBREVIATION: %
MEASURED VALUE: 95.54

MOLECULE: COc1oc(C2C/C(=C/C(C)=C/C(C)=C/C(C)=C/c3ccc([N+](=O)[O-])cc3)CO2)c(C)c(=O)c1C (stereo not shown) [BIA-N1058]
ENDPOINT: Pf_72h_%Growth_Rep1
UNIT ABBREVIATION: %
MEASURED VALUE: 9.38

MOLECULE: Cn1c(=O)/c(=C/c2ccccc2)[nH]c(=O)/c1=C/c1ccccc1 [BIA-P1156]
ENDPOINT: Pf_72h_%Growth_Rep1
UNIT ABBREVIATION: %
MEASURED VALUE: 84.26

MOLECULE: CCCCCCC(=O)CCCCCC/C=C/C[C@@H](O)[C@H](O)[C@@](N)(CO)C(=O)O [BIA-M1219]
ENDPOINT: Pf_72h_%Growth_Rep1
UNIT ABBREVIATION: %
MEASURED VALUE: 77.20

MOLECULE: C[C@@H]1C[C@H]2CC[C@H](O2)[C@H](C)C(=O)O[C@@H](C)C[C@@H]2CC[C@@H](O2)[C@@H](C)C(=O)O[C@H](C)C[C@H]2CC[C@@H](O2)[C@H](C)C(=O)O[C@@H](C)C[C@@H]2CC[C@@H](O2)[C@@H](C)C(=O)O1 [BIA-N1270]
ENDPOINT: Pf_72h_%Growth_Rep1
UNIT ABBREVIATION: %
MEASURED VALUE: 6.60

Form field Pf_72h_%Growth_Rep1, entry CCCCCCCCCCCC(O)CC(=O)NC(CC(C)C)C(=O)NC(CCC(=O)O)C(=O)NC1C(=O)NC(C(C)CC)C(=O)NC(CC(C)C)C(=O)NC(CO)C(=O)NC(CC(C)C)C(=O)NC(CC(C)C)C(=O)NC(CO)C(=O)NC(C(C)C)C(=O)OC1C (stereo not shown) [BIA-O1430] (X2-LETILSLLSV; ester 3-C; configuration not given here) : 78.47

Form field Pf_72h_%Growth_Rep1, entry CC(=O)c1c(O)cc(O)cc1O [BIA-M1378] : 82.52

---

tested on: T. gondii RH strain (RH-Tub-eYFP) tachyzoites; test: microbe, parasite or virus in culture; format: cell-based, Toxoplasma gondii; conditions: library screen at 2 μg/mL, 72 h, % growth, replicate 2
ENDPOINT: Tg_72h_%Growth_Rep2

COMPOUND: C=C(NC(=O)C(=C)NC(=O)c1ccc2c(n1)-c1coc(n1)C(=C)NC(=O)C(=C)NC(=O)c1nc(oc1C)C(=C)NC(=O)C(C(C)(C)O)NC(=O)C(=C)NC(=O)c1coc(n1)/C(=C/C)NC(=O)[C@H]([C@@H](C)O)NC(=O)c1csc-2n1)C(N)=O (some centres unmarked) [Geninthiocin]
TEST TARGET: T. gondii RH strain (RH-Tub-eYFP) tachyzoites
ENDPOINT: Tg_72h_%Growth_Rep2
MEASURED VALUE: 90.80%

Consider the additional compound presented here.
Form field Tg_72h_%Growth_Rep2, entry COc1c(O)c2c(=O)cc3c4c5c(cc(=O)c6c(O)c(OC)c(C[C@H](C)OC(C)=O)c(c(c1C[C@H](C)OC(C)=O)c24)c65)OCO3 [Diacetylcercosporin] : 14.87%

These data points were gathered from paper PMC12396409.
